# Organism: Rattus norvegicus
# test.description: DrugMatrix - Regimen: Daily Repeat
# Type: toxicity, organism-based, Sprague-Dawley
# Parameters: regimen Daily Repeat, gender Male, age 6-8 weeks
# experimental.setup: in vivo, po, 0 mg/kg, 120 h, tissue Blood, route oral GAVAGE, dose level Control, time 5 day, vehicle .5 % CMC
experimental.readout: MONOCYTE

Solved cases below.
{"compound": "O=C1CCc2cc(OCCCCc3nnnn3C3CCCCC3)ccc2N1", "experimental.readout": "MONOCYTE", "reported.value": "2.2%"}
{"compound": "CCOC(=O)OC(C)OC1=C(C(=O)Nc2ccccn2)N(C)S(=O)(=O)c2ccccc21 (stereo not given)", "experimental.readout": "MONOCYTE", "reported.value": "1%"}
{"compound": "CC(C)[C@H](N)C(=O)OCCOCn1cnc2c(=O)[nH]c(N)nc21", "experimental.readout": "MONOCYTE", "reported.value": "0.83%"}
{"compound": "C[C@]12CCC(=O)C=C1CC[C@@H]1[C@@H]2C(=O)C[C@@]2(C)[C@H]1CC[C@]2(O)C(=O)CO", "experimental.readout": "MONOCYTE", "reported.value": "2.37%"}
{"compound": "Brc1ccccc1", "experimental.readout": "MONOCYTE", "reported.value": "1%"}
{"compound": "CN1CCC[C@@H]1CCO[C@](C)(c1ccccc1)c1ccc(Cl)cc1", "experimental.readout": "MONOCYTE", "reported.value": "1.83%"}
{"compound": "O=c1[nH]cc(F)c(=O)[nH]1", "experimental.readout": "MONOCYTE", "reported.value": "0.5%"}
{"compound": "CCc1ccc(C(=O)C(C)CN2CCCCC2)cc1 (stereo not given)", "experimental.readout": "MONOCYTE", "reported.value": "2%"}

Input "NCC(=O)O" . Output MONOCYTE: 1.5%

Input CCc1cccc2c3c([nH]c12)C(CC)(CC(=O)O)OCC3 (stereo not given) . Output MONOCYTE: 2.37%

* * *

# Species: Rattus norvegicus
# test.description: DrugMatrix - Regimen: Daily Repeat
# Type: toxicity, organism-based, Sprague-Dawley
# Set-up: regimen Daily Repeat, gender Male, age 6-8 weeks
# experimental.setup: in vivo, po, 1500 mg/kg, 72 h, tissue Blood, route oral GAVAGE, dose level High, time 3 day, vehicle .5 % CMC
experimental.readout: PLATELET COUNT
Number first, unit second.

{"molecule": "CCOC(=O)[C@H](CCc1ccccc1)N[C@@H](C)C(=O)N1[C@H](C(=O)O)C[C@@H]2CCC[C@@H]21", "reported.value": "1317.67 x10E3/uL"}

Input O=C1CCc2cc(OCCCCc3nnnn3C3CCCCC3)ccc2N1 [CILOSTAZOL] . Output PLATELET COUNT: 1348.33 x10E3/uL

Input COC(=O)c1ccc(O)cc1 [METHYLPARABEN] . Output PLATELET COUNT: 1154.33 x10E3/uL

Input NS(=O)(=O)c1cc2c(cc1Cl)NCNS2(=O)=O [HYDROCHLOROTHIAZIDE] . Output PLATELET COUNT: 1140 x10E3/uL

* * *

# Species: Rattus norvegicus
# test.description: DrugMatrix - Regimen: Daily Repeat
# Format: toxicity, organism-based, Sprague-Dawley
# Design: regimen Daily Repeat, gender Male, age 6-8 weeks
# experimental.setup: in vivo, po, 0 mg/kg, 120 h, tissue Plasma, route oral GAVAGE, dose level Control, time 5 day, […]
Listed here are compounds together with their documented POTASSIUM.

Solved cases below.
{"compound": "C=CCN", "POTASSIUM": "6.1 MEQ/L"}
{"compound": "CC(C)(Oc1ccc(CCNC(=O)c2ccc(Cl)cc2)cc1)C(=O)O [BEZAFIBRATE]", "POTASSIUM": "5.92 MEQ/L"}
{"compound": "Oc1c(Cl)cc(Cl)cc1Sc1cc(Cl)cc(Cl)c1O", "POTASSIUM": "5.46 MEQ/L"}
{"compound": "Cn1cnc([N+](=O)[O-])c1Sc1ncnc2nc[nH]c12", "POTASSIUM": "5.18 MEQ/L"}
{"compound": "COc1ccc2c(c1)c(CC(=O)OCC(=O)O)c(C)n2C(=O)c1ccc(Cl)cc1", "POTASSIUM": "5.92 MEQ/L"}

Please look at the following compound next.
Input CCCC[C@@H](CC)COC(=O)c1ccccc1C(=O)OC[C@@H](CC)CCCC [BIS(2-ETHYLHEXYL)PHTHALATE] . Output POTASSIUM: 5.46 MEQ/L

* * *

# Organism: Rattus norvegicus
# test.description: DrugMatrix - Regimen: Daily Repeat
# Assay type: toxicity, organism-based, Sprague-Dawley
# Set-up: regimen Daily Repeat, gender Male, age 6-8 weeks
# experimental.setup: in vivo, iv, 0 mg/kg, 120 h, tissue Plasma, dose level Control, time 5 day, vehicle 100 % SALINE
Listed here are molecules together with their documented ALBUMIN.
Answer format: numeric, G/DL implied, no suffix.

Solved cases below.
{"molecule": "CC1(C)S[C@@H]2[C@H](NC(=O)[C@H](NC(=O)N3CCNC3=O)c3ccccc3)C(=O)N2[C@H]1C(=O)O [AZLOCILLIN]", "value.units": "G/DL", "ALBUMIN": 4.23}
{"molecule": "CN(N=O)C(=O)N[C@@H](C=O)[C@@H](O)[C@H](O)[C@H](O)CO [STREPTOZOCIN]", "value.units": "G/DL", "ALBUMIN": 4.22}
{"molecule": "CC[C@@]1(O)C(=O)OCc2c1cc1n(c2=O)Cc2cc3ccccc3nc2-1 [CAMPTOTHECIN]", "value.units": "G/DL", "ALBUMIN": 4.12}

Please look at the following molecule next.
Input NCC[C@H](O)C(=O)N[C@@H]1C[C@H](N)[C@@H](O[C@H]2O[C@H](CN)[C@@H](O)[C@H](O)[C@H]2O)[C@H](O)[C@H]1O[C@H]1O[C@H](CO)[C@@H](O)[C@H](N)[C@H]1O [AMIKACIN] . Output ALBUMIN: 3.97

* * *

# Species on record: Rattus norvegicus
# test.description: DrugMatrix - Regimen: Daily Repeat
# Assay type: toxicity, organism-based, Sprague-Dawley
# Set-up: regimen Daily Repeat, gender Male, age 6-8 weeks
# experimental.setup: in vivo, po, 0 mg/kg, 72 h, tissue Blood, route oral GAVAGE, dose level Control, time 3 day, vehicle 100 % WATER
experimental.readout: ABSOLUTE MONOCYTE
Number first, unit second.

Input "C[C@]12Cc3c[nH]nc3C[C@@H]1CC[C@@H]1[C@@H]2CC[C@@]2(C)[C@H]1CC[C@]2(C)O" . Output ABSOLUTE MONOCYTE: 43.83 CELLS/uL

Input "CC1(C)S[C@@H]2[C@H](NC(=O)[C@H](N)c3ccc(O)cc3)C(=O)N2[C@H]1C(=O)O" . Output ABSOLUTE MONOCYTE: 456.33 CELLS/uL

Input CN1CCN(C(=O)OC2c3nccnc3C(=O)N2c2ccc(Cl)cn2)CC1 (centres undefined) . Output ABSOLUTE MONOCYTE: 166.67 CELLS/uL

Input "Fc1ccc([C@@H]2CCNC[C@H]2COc2ccc3c(c2)OCO3)cc1" . Output ABSOLUTE MONOCYTE: 43.83 CELLS/uL

Input "NCC1(CC(=O)O)CCCCC1" . Output ABSOLUTE MONOCYTE: 65.33 CELLS/uL

Input "NNC(=O)c1ccncc1" . Output ABSOLUTE MONOCYTE: 319.33 CELLS/uL

Input "NC(=O)c1ncn([C@@H]2O[C@H](CO)[C@@H](O)[C@H]2O)n1" . Output ABSOLUTE MONOCYTE: 239.33 CELLS/uL

Input "Cc1cc(NS(=O)(=O)c2ccc(N)cc2)no1" . Output ABSOLUTE MONOCYTE: 197.17 CELLS/uL

Input CC(CCc1ccccc1)NCC(O)c1ccc(O)c(C(N)=O)c1 (centres undefined) . Output ABSOLUTE MONOCYTE: 121 CELLS/uL

* * *

# Species: Rattus norvegicus
# test.description: DrugMatrix - Regimen: Daily Repeat
# Type: toxicity, organism-based, Sprague-Dawley
# Set-up: regimen Daily Repeat, gender Male, age 6-8 weeks
# experimental.setup: in vivo, po, 0 mg/kg, 72 h, tissue Blood, route oral GAVAGE, dose level Control, time 3 day, vehicle 100 % WATER
Listed here are molecules together with their documented MEAN CORPUSCULAR HEMOGLOBIN.
Answer format: numeric, pg implied, no suffix.

Solved cases below.
{"molecule": "CN1CCC[C@H]1c1cccnc1", "value.units": "pg", "reported.value": 25.23}
{"molecule": "NC(=O)c1ncn([C@@H]2O[C@H](CO)[C@@H](O)[C@H]2O)n1", "value.units": "pg", "reported.value": 24.62}
{"molecule": "Cc1cc(NS(=O)(=O)c2ccc(N)cc2)no1", "value.units": "pg", "reported.value": 24.8}
{"molecule": "Nc1ccc(S(=O)(=O)Nc2ccnn2-c2ccccc2)cc1", "value.units": "pg", "reported.value": 24.42}
{"molecule": "C[C@]12Cc3c[nH]nc3C[C@@H]1CC[C@@H]1[C@@H]2CC[C@@]2(C)[C@H]1CC[C@]2(C)O", "value.units": "pg", "reported.value": 24.5}
{"molecule": "O=C1NC(=O)C(c2ccccc2)(c2ccccc2)N1", "value.units": "pg", "reported.value": 25.62}
{"molecule": "Clc1ccc(C(c2ccccc2Cl)C(Cl)Cl)cc1 (stereo not given)", "value.units": "pg", "reported.value": 25.92}
{"molecule": "Fc1ccc([C@@H]2CCNC[C@H]2COc2ccc3c(c2)OCO3)cc1", "value.units": "pg", "reported.value": 24.5}
{"molecule": "CC1(C)S[C@@H]2[C@H](NC(=O)[C@H](N)c3ccc(O)cc3)C(=O)N2[C@H]1C(=O)O", "value.units": "pg", "reported.value": 23.68}
{"molecule": "CC(CCc1ccccc1)NCC(O)c1ccc(O)c(C(N)=O)c1 (stereo not given)", "value.units": "pg", "reported.value": 24.53}

Input "NNC(=O)c1ccncc1" . Output MEAN CORPUSCULAR HEMOGLOBIN: 24.35

Input COc1ccc(C(CN(C)C)C2(O)CCCCC2)cc1 (stereo not given) . Output MEAN CORPUSCULAR HEMOGLOBIN: 24.8

Input CN1CCN(C(=O)OC2c3nccnc3C(=O)N2c2ccc(Cl)cn2)CC1 (stereo not given) . Output MEAN CORPUSCULAR HEMOGLOBIN: 24.88

Input "CNCCC=C1c2ccccc2CCc2ccccc21" . Output MEAN CORPUSCULAR HEMOGLOBIN: 25.62

Input COc1cccc(C2(O)CCCCC2CN(C)C)c1 (stereo not given) . Output MEAN CORPUSCULAR HEMOGLOBIN: 24.5

Input CC1COc2c(N3CCN(C)CC3)c(F)cc3c(=O)c(C(=O)O)cn1c23 (stereo not given) . Output MEAN CORPUSCULAR HEMOGLOBIN: 25.23

Input "CC(C)(S)[C@@H](N)C(=O)O" . Output MEAN CORPUSCULAR HEMOGLOBIN: 24.12

Input "Cn1cnc([N+](=O)[O-])c1Sc1ncnc2nc[nH]c12" . Output MEAN CORPUSCULAR HEMOGLOBIN: 24.2

Input "COc1cc2c(N3CCN(C(=O)Nc4ccc(OC(C)C)cc4)CC3)ncnc2cc1OCCCN1CCCCC1" . Output MEAN CORPUSCULAR HEMOGLOBIN: 21.47

Input "NCC1(CC(=O)O)CCCCC1" . Output MEAN CORPUSCULAR HEMOGLOBIN: 25.87

Cited source for all entries: ChEMBL document CHEMBL3885881
